# SYSTEM TESTED: T1, EsCas13d, nuclease-dead (Eubacterium siraeum, UniProt B0MS50, R295A;H300A;R849A;H854A)
# T1 sequence: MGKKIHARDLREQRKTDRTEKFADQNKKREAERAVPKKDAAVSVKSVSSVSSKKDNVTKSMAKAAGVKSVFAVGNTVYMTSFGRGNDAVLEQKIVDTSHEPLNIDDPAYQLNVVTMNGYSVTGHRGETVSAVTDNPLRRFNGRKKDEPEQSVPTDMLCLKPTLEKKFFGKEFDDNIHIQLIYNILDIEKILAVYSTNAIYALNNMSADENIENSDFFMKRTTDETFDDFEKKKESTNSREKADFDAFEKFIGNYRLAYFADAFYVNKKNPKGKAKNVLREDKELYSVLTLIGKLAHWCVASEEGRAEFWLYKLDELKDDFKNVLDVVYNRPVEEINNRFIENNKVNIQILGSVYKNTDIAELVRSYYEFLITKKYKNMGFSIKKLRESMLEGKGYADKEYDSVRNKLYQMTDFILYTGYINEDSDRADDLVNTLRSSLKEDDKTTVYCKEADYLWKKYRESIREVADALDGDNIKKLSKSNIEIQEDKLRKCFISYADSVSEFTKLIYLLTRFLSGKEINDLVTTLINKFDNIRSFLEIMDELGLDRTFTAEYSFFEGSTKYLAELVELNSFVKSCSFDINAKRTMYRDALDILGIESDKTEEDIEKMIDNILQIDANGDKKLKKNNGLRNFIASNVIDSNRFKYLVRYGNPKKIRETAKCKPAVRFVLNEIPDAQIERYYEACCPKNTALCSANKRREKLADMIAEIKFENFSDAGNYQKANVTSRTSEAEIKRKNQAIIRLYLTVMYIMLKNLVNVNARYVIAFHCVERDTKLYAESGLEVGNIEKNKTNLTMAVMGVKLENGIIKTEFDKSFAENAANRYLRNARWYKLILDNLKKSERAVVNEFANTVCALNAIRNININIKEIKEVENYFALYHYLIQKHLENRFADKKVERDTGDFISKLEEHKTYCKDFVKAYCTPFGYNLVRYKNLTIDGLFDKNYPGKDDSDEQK
# ASSAY PROTOCOL: crRNA (strand 1, pre-loaded); Mg2+; 40 mM Tris-HCl pH 7.5, 150 mM NaCl, 6 mM MgCl2, 1 mM DTT, 0.1% Tween-20, 0.2 mg/ml BSA; 25 C; 10 min per concentration, then washed
# PARTICULARS: tags: His6-TwinStrep-SUMO cleaved; N-terminal SNAP kept (SNAP-Surface 488); label: 3' end held by stalled T7 RNA polymerase
Some binders, each annotated with its measured Kd.
Record the value in nM, omitting the unit from your answer.

Please review the entries below; each comes with its answer.
target 1 U10C,G12U (mixed) RNA 1: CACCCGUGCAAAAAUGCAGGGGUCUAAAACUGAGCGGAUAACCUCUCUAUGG RNA 2: GGGAAUGGAUCCACAUCUACGAAUUCGUACCAUAGAGAGUUCAUCCGCUCACCGAGAUCGGAAGAGCACACGU	24
target 2 MT 5'PFS CGA 3'PFS UAC (mixed) RNA 1: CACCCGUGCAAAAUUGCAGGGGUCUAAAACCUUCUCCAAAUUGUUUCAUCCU RNA 2: GGGAAUGGAUCCACAUCUACGAAUUCCGAAGGAUGAAACAAUUUGGAGAAGUACAGAUCGGAAGAGCACACGU	9.5
target 3 C6U,A18G (mixed) RNA 1: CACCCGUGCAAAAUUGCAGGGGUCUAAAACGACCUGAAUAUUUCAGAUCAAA RNA 2: GGGAAUGGAUCCACAUCUACGAAUUCGUUUUUGGUCUGAAAUAUUUAGGUCUGCAGAUCGGAAGAGCACACGU	20.3

// next item, Kd requested
Record summary for target 1 C6U (mixed) RNA 1: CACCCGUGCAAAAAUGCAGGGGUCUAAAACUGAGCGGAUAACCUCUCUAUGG RNA 2: GGGAAUGGAUCCACAUCUACGAAUUCGUACCAUAGAGAGGUUAUCUGCUCACCGAGAUCGGAAGAGCACACGU : reported Kd = 8.5
